target_desc: human PAH with the R408W mutation (Homo sapiens, UniProt P00439, R408W)
Construct: expressed in transfected cells
Sequence (P00439 whole entry R408W): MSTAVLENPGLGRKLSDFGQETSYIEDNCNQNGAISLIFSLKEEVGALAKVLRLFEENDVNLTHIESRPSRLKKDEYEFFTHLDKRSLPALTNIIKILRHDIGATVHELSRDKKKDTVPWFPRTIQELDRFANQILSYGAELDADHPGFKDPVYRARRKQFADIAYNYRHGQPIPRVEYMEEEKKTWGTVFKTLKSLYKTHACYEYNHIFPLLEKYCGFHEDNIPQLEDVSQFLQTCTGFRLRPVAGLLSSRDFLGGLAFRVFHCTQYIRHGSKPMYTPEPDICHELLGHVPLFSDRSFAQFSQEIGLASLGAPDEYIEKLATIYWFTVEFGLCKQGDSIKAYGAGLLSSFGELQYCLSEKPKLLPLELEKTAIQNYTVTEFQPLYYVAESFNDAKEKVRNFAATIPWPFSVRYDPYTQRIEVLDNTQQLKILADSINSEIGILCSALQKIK
assay: Cell Based Phenylalanine Flux Assay;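 also: after compound treatment, cells received sepiapterin plus isotope-labelled Phenylalanine for 4 hours, then labelled Tyrosine in the medium was quantified, 10-point 2-fold dilution series run in duplicate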
assay_conditions: A375 cells expressing human PAH R408W; 24 hrs compound incubation; 13C-Tyrosine by LC-MS; average where tested multiple times; read-out: AC50
Reported AC50 by item:

Here are 10 molecules together with their reported answers.
| molecule | AC50 |
| --- | --- |
| Cn1ccc(-c2nnc(C(=O)N3CCc4[nH]cnc4[C@@H]3c3cc4c(F)cccn4n3)s2)n1 [Example 1994] | > 5000 nM |
| Cc1cccn2nc([C@@H]3c4nc[nH]c4CCN3C(=O)c3cnc(-c4cnn(C)c4C)o3)cc12 [Example 1962] | 500 to 1000 nM |
| Fc1cccn2nc([C@H]3c4nc[nH]c4CCN3c3ccccn3)cc12 [Example 1976] | > 5000 nM |
| COc1ccc2c(C(=O)N3CCc4[nH]cnc4[C@H]3c3cc4cccc(Cl)n4n3)cnn2c1 [Example 2464] | 1000 to 5000 nM |
| COc1cccn2nc([C@@H]3c4nc[nH]c4CCN3c3nnc(C(F)F)o3)cc12 [Example 2151] | < 500 nM |
| CC(F)(F)c1nnc(N2CCc3[nH]cnc3[C@H]2c2cc3ccccn3n2)o1 [Example 2191] | 500 to 1000 nM |
| Cc1cccn2nc([C@@H]3c4nc[nH]c4CCN3c3nnc(-c4c(F)cccc4F)o3)cc12 [Example 1845] | < 500 nM |
| Cn1nccc1-c1nnc(C(=O)N2CCc3[nH]cnc3[C@H]2c2cc3ccccn3n2)o1 [Example 2004] | 500 to 1000 nM |
| O=C(c1nnc(C2CC2)o1)N1CCc2[nH]cnc2[C@@H]1c1cc2ccc(F)cn2n1 [Example 2405] | > 5000 nM |
| Cn1cc(-c2nnc(C(=O)N3CCc4[nH]cnc4[C@@H]3c3cc4c(Br)cccn4n3)o2)cn1 [Example 1869] | > 5000 nM |

molecule O=C(c1cnc(C2CC2)o1)N1CCc2[nH]cnc2[C@H]1c1cc2c(C(F)(F)F)cccn2n1 [Example 2140] , AC50 observed: < 500 nM

AC50 reported for this molecule O=C(c1nnc(-c2cnn(C(F)(F)F)c2)o1)N1CCc2[nH]cnc2[C@@H]1c1cc2ccccn2n1 [Example 2427] : > 5000 nM

Value of measured AC50 for the entry Fc1cccc(F)c1-c1nnc(N2CCc3[nH]cnc3[C@H]2c2cc3cccc(C(F)(F)F)n3n2)o1 [Example 2133] : < 500 nM

Sure, the documented AC50 for O=C(c1nc2ccccc2s1)N1CCc2[nH]cnc2[C@@H]1c1cc2c(F)cccn2n1 [Example 2003] is > 5000 nM
